target: His-tagged KRAS G12D protein (Homo sapiens, UniProt P01116, G12D); assay: KRAS G12D TR-FRET assay (binding); details: biotinylated KRPep-2d substrate, GDP in assay buffer
Sequence (P01116 1-188 isoform P01116-2 G12D): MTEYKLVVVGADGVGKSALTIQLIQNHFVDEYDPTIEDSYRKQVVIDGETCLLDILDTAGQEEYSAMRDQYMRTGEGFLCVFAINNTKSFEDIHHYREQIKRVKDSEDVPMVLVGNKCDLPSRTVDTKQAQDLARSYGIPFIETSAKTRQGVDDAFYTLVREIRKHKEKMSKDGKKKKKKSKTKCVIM
reported endpoint: IC50 (nM)
Reply numerically in nM, unit not repeated.

Completed entries (count: 2):
Q: Consider the compound CCc1c(F)ccc2cc(O)cc(-c3ncc4c(N5CCCOCC5)nc(OCC5(C#N)CCNC5)nc4c3F)c12 (stereo not drawn) and give its measured IC50.
Ans: 11

Q: Moving on to the next compound: CCc1c(F)ccc2cc(O)cc(-c3ncc4c(N5C[C@@H]6CC[C@@H]5CO6)nc(OC[C@@]56CCCN5C[C@H](F)C6)nc4c3F)c12
Ans: 79

***
Q: Find the recorded IC50 belonging to CCc1c(F)ccc2cc(O)cc(-c3ncc4c(N5CCSC(CO)C5)nc(OC[C@@]56CCCN5C[C@H](F)C6)nc4c3F)c12 (stereo partly drawn) and report it.
Ans: 6

* * *

biological target: His-tagged KRAS G12D protein (Homo sapiens, UniProt P01116, G12D); experiment: KRAS G12D TR-FRET assay (binding); conditions: biotinylated KRPep-2d substrate, GDP in assay buffer
Strictly below 10 nM in IC50: Fulfilled. Otherwise: Not fulfilled.

Q: Report whether reported IC50 is lower than 10 nM (strictly) for CCc1c(F)ccc2cc(O)cc(-c3ncc4c(N5CC6COCC(C5)C6O)nc(OC[C@@]56CCCN5C[C@H](F)C6)nc4c3F)c12 (stereo partly shown)
Ans: Not fulfilled

Q: Now give it for CCc1c(F)ccc2cc(O)cc(-c3ncc4c(N5CCOCC(C(N)=O)C5)nc(OC[C@@]56CCCN5C[C@H](F)C6)nc4c3F)c12 (single isomer, unassigned) [Example 46] too.
Ans: Not fulfilled

Q: Record: CCc1c(F)ccc2cc(O)cc(-c3ncc4c(N5CCOCC(O)(CC)C5)nc(OC[C@@]56CCCN5C[C@H](F)C6)nc4c3F)c12 (stereo partly shown)
Ans: Fulfilled

Q: How about CCc1c(F)ccc2cc(O)cc(-c3ncc4c(N5CCOC[C@@H](OC)C5)nc(OC[C@@]56CCCN5C[C@H](F)C6)nc4c3F)c12 ?
Ans: Fulfilled

Q: Again, but for CCc1cccc2cc(O)cc(-c3ncc4c(N5CCCOCC5)nc(OC[C@@H]5C[C@@H](F)CN5C)nc4c3F)c12
Ans: Not fulfilled

Q: And the next one, CCc1c(F)ccc2cc(O)cc(-c3ncc4c(N5CCCOC(C(=O)NC)C5)nc(OC[C@@]56CCCN5C[C@H](F)C6)nc4c3F)c12 (single isomer, unassigned) [Example 43] ?
Ans: Not fulfilled

Continuing:
Q: Does the reported IC50 of the following compound sit strictly below 10 nM? CCc1c(F)ccc2cc(O)cc(-c3ncc4c(N5CCOCC(C#N)C5)nc(OC[C@@]56CCCN5C[C@H](F)C6)nc4c3F)c12 (stereo partly shown)
Ans: Fulfilled

Q: And then CCc1c(F)ccc2cc(O)cc(-c3ncc4c(N5CCCOCC5)nc(OC[C@@H]5C[C@@H](F)CN5C)nc4c3F)c12 , what is it?
Ans: Fulfilled

* * *

pIC50 listing for selected compounds.
target: His-tagged KRAS G12D protein (Homo sapiens, UniProt P01116, G12D); assay: KRAS G12D TR-FRET assay (binding); settings: biotinylated KRPep-2d substrate, GDP in assay buffer
Lab note — pIC50 values are minus log10 of concentrations in M.

Example entries begin here.
Q: GET /values?readout=pIC50&item= CCc1c(F)ccc2cc(O)cc(-c3ncc4c(N5CCOCC(C(=O)NC)C5)nc(OC[C@@]56CCCN5C[C@H](F)C6)nc4c3F)c12 (single isomer, unassigned) [Example 45]
Ans: 8.70

Q: And the next one, CCc1c(F)ccc2cc(O)cc(-c3ncc4c(N5CCC[S+]([O-])CC5)nc(OC[C@@]56CCCN5C[C@H](F)C6)nc4c3F)c12 (stereo partly drawn) ?
Ans: 9.00

Now look at this one.
Q: Value lookup for pIC50; key = CCc1c(F)ccc2cc(O)cc(-c3ncc4c(N5CC[S+]([O-])CC5)nc(OC[C@@]56CCCN5C[C@H](F)C6)nc4c3F)c12
Ans: 9.00
